Reported % Activation at 100 nM values for the following molecules.
# studyTarget: GAL4(DBD)-MR(LBD) (Homo sapiens (Human))
# experiment: Mineralocorticoid receptor transactivation, UAS-bla HEK 293T CELLSENSOR reporter assay, agonist mode
# Format: cell-based
# protocolConditions: 100 nM, control compound aldosterone
Write down the numeric answer in % and omit the unit.

**Query** Item C[C@]12CCC(=O)C=C1CC[C@@H]1[C@@H]2[C@@H](O)C[C@@]2(C)[C@H]1CC[C@]2(O)C(=O)CO [drawing 23] has what recorded % Activation at 100 nM?
**Result** 75

**Query** Item CCC(=O)O[C@]1(C(=O)CO)CC[C@H]2[C@@H]3CCC4=CC(=O)CC[C@]4(C)[C@H]3[C@@H](O)C[C@@]21C [drawing 25] has what recorded % Activation at 100 nM?
**Result** 76

**Query** Item CCCCCCC(=O)O[C@]1(C(=O)CO)CC[C@H]2[C@@H]3CCC4=CC(=O)CC[C@]4(C)[C@H]3[C@@H](O)C[C@@]21C [drawing 26] has what recorded % Activation at 100 nM?
**Result** 72

**Query** Item C[C@]12CCC(=O)C=C1CC[C@@H]1[C@@H]2[C@@H](O)C[C@@]2(C)[C@H]1CC[C@]2(OC(=O)C1CCCC1)C(=O)CO [drawing 31] has what recorded % Activation at 100 nM?
**Result** 27

###

Reported EC50 values for the following molecules.
# studyTarget: GAL4(DBD)-MR(LBD) (Homo sapiens (Human))
# experiment: Mineralocorticoid receptor transactivation, UAS-bla HEK 293T CELLSENSOR reporter assay, agonist mode
# Assay type: cell-based
# protocolConditions: 16 hours incubation, maximum concentration 100 nM, read-out: EC50 (nM) MR (Table 4: mineralocorticoid receptor potency)
Write down the numeric answer in nM and omit the unit.

Solved cases below.
- molecule: "CCCC(=O)O[C@]1(C(=O)CO)CC[C@H]2[C@@H]3CCC4=CC(=O)CC[C@]4(C)[C@H]3[C@@H](O)C[C@@]21C [drawing 24]"
  studyTarget: "GAL4(DBD)-MR(LBD) (Homo sapiens (Human))"
  EC50 [nM]: 2.94
- molecule: "CCCCCC(=O)O[C@]1(C(=O)CO)CC[C@H]2[C@@H]3CCC4=CC(=O)CC[C@]4(C)[C@H]3[C@@H](O)C[C@@]21C [drawing 27]"
  studyTarget: "GAL4(DBD)-MR(LBD) (Homo sapiens (Human))"
  EC50 [nM]: 5.68
- molecule: "CCCCCCC(=O)O[C@]1(C(=O)CO)CC[C@H]2[C@@H]3CCC4=CC(=O)CC[C@]4(C)[C@H]3[C@@H](O)C[C@@]21C [drawing 29]"
  studyTarget: "GAL4(DBD)-MR(LBD) (Homo sapiens (Human))"
  EC50 [nM]: 9.29

**Query** Item C[C@]12CCC(=O)C=C1CC[C@@H]1[C@@H]2[C@@H](O)C[C@@]2(C)[C@H]1CC[C@]2(OC(=O)c1ccccc1)C(=O)CO [drawing 28] has what recorded EC50?
**Result** 7.46

###

# studyTarget: Glucocorticoid receptor (GR) (Homo sapiens (Human), UniProt P04150)
# Sequence (P04150 whole entry): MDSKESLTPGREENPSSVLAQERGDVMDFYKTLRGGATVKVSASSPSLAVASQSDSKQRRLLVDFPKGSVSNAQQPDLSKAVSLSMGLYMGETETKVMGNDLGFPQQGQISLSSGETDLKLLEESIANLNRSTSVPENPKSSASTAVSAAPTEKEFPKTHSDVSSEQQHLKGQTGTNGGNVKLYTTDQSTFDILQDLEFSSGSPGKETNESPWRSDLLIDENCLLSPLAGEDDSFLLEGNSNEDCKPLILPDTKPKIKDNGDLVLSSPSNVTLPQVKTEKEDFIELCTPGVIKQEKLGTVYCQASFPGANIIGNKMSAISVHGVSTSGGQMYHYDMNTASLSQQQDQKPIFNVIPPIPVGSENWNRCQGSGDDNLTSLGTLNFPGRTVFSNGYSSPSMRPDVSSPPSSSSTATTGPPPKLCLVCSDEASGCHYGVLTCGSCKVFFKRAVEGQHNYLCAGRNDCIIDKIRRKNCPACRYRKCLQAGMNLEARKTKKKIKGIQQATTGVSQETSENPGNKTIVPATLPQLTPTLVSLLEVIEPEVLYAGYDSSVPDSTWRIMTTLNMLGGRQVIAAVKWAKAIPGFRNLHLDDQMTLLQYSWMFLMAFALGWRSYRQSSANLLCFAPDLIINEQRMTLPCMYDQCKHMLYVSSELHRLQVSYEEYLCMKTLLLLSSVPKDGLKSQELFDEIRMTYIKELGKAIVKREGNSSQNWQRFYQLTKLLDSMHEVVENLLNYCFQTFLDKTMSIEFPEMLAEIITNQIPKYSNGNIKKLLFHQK
# experiment: Glucocorticoid receptor transactivation, MMTV-bla HeLa CELLSENSOR reporter assay, agonist mode
# Assay type: cell-based
# protocolConditions: 100 nM, control compound dexamethasone
readoutLabel: % Activation at 100 nM (%)
Write down the numeric answer in % and omit the unit.

- compound: "CCC(=O)O[C@]1(C(=O)CO)CC[C@H]2[C@@H]3CCC4=CC(=O)CC[C@]4(C)[C@H]3[C@@H](O)C[C@@]21C [drawing 16]"
  studyTarget: "Glucocorticoid receptor (GR) (Homo sapiens (Human), UniProt P04150)"
  reportedValue: 85

**Query** Item CC(C)C(=O)O[C@]1(C(=O)CO)CC[C@H]2[C@@H]3CCC4=CC(=O)CC[C@]4(C)[C@H]3[C@@H](O)C[C@@]21C [drawing 17] has what recorded % Activation at 100 nM?
**Result** 84

**Query** Item C[C@]12CCC(=O)C=C1CC[C@@H]1[C@@H]2[C@@H](O)C[C@@]2(C)[C@H]1CC[C@]2(OC(=O)c1ccccc1)C(=O)CO [drawing 12] has what recorded % Activation at 100 nM?
**Result** 85

**Query** Item CCCCCCC(=O)O[C@]1(C(=O)CO)CC[C@H]2[C@@H]3CCC4=CC(=O)CC[C@]4(C)[C@H]3[C@@H](O)C[C@@]21C [drawing 19] has what recorded % Activation at 100 nM?
**Result** 15

**Query** Item CCCCCC(=O)O[C@]1(C(=O)CO)CC[C@H]2[C@@H]3CCC4=CC(=O)CC[C@]4(C)[C@H]3[C@@H](O)C[C@@]21C [drawing 14] has what recorded % Activation at 100 nM?
**Result** 65

**Query** Item CCCC(=O)O[C@]1(C(=O)CO)CC[C@H]2[C@@H]3CCC4=CC(=O)CC[C@]4(C)[C@H]3[C@@H](O)C[C@@]21C [drawing 13] has what recorded % Activation at 100 nM?
**Result** 86

###

# studyTarget: UniProt:P04150
# experiment: Glucocorticoid receptor transactivation, MMTV-bla HeLa CELLSENSOR reporter assay, agonist mode
# Type: cell-based
# protocolConditions: 100 nM, control compound dexamethasone
Reported % Activation at 100 nM values for the following compounds.
Write down the numeric answer in % and omit the unit.

Solved cases below.
- compound: "C[C@]12CCC(=O)C=C1CC[C@@H]1[C@@H]2[C@@H](O)C[C@@]2(C)[C@H]1CC[C@]2(OC(=O)C1CCCC1)C(=O)CO [drawing 11]"
  unit: "%"
  % Activation at 100 nM: 88
- compound: "C[C@]12CCC(=O)C=C1CC[C@@H]1[C@@H]2[C@@H](O)C[C@@]2(C)[C@H]1CC[C@]2(O)C(=O)CO [drawing 18]"
  unit: "%"
  % Activation at 100 nM: 43

**Query** Item CCCCCCC(=O)O[C@]1(C(=O)CO)CC[C@H]2[C@@H]3CCC4=CC(=O)CC[C@]4(C)[C@H]3[C@@H](O)C[C@@]21C [drawing 15] has what recorded % Activation at 100 nM?
**Result** 47

**Query** Item C[C@]12CCC(=O)C=C1CC[C@@H]1[C@@H]2[C@@H](O)C[C@@]2(C)[C@H]1CC[C@]2(OC(=O)Cc1ccccc1)C(=O)CO [drawing 20] has what recorded % Activation at 100 nM?
**Result** 5

###

Reported EC50 values for the following compounds.
# studyTarget: GAL4(DBD)-MR(LBD) (Homo sapiens (Human), UniProt P08235)
# Sequence (P08235 726-964): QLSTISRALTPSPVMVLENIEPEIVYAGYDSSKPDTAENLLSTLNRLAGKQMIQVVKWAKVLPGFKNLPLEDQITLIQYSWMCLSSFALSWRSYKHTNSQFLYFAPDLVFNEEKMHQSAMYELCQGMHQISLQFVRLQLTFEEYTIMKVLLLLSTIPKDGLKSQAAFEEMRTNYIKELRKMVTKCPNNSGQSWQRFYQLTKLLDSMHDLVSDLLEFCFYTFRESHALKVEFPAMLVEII
# experiment: Mineralocorticoid receptor transactivation, UAS-bla HEK 293T CELLSENSOR reporter assay, agonist mode
# Type: cell-based
# protocolConditions: 16 hours incubation, maximum concentration 100 nM, read-out: EC50 (nM) MR (Table 4: mineralocorticoid receptor potency)

**Query** Item CCCCCCC(=O)O[C@]1(C(=O)CO)CC[C@H]2[C@@H]3CCC4=CC(=O)CC[C@]4(C)[C@H]3[C@@H](O)C[C@@]21C [drawing 26] has what recorded EC50?
**Result** 5.27 nM

###

# studyTarget: Glucocorticoid receptor (GR) (Homo sapiens (Human), UniProt P04150)
# experiment: Glucocorticoid receptor transactivation, MMTV-bla HeLa CELLSENSOR reporter assay, agonist mode
# Format: cell-based
# protocolConditions: 5 hours incubation, maximum concentration 100 nM
Reported EC50 values for the following compounds.
Write down the numeric answer in nM and omit the unit.

- compound: "CCCCCC(=O)O[C@]1(C(=O)CO)CC[C@H]2[C@@H]3CCC4=CC(=O)CC[C@]4(C)[C@H]3[C@@H](O)C[C@@]21C [drawing 14]"
  studyTarget: "Glucocorticoid receptor (GR) (Homo sapiens (Human), UniProt P04150)"
  reportedValue: 3.25
- compound: "CCCC(=O)O[C@]1(C(=O)CO)CC[C@H]2[C@@H]3CCC4=CC(=O)CC[C@]4(C)[C@H]3[C@@H](O)C[C@@]21C [drawing 13]"
  studyTarget: "Glucocorticoid receptor (GR) (Homo sapiens (Human), UniProt P04150)"
  reportedValue: 1.97

**Query** Item CCCCCCC(=O)O[C@]1(C(=O)CO)CC[C@H]2[C@@H]3CCC4=CC(=O)CC[C@]4(C)[C@H]3[C@@H](O)C[C@@]21C [drawing 15] has what recorded EC50?
**Result** 6.04

###

# studyTarget: Glucocorticoid receptor (GR) (Homo sapiens (Human), UniProt P04150)
# experiment: Glucocorticoid receptor transactivation, MMTV-bla HeLa CELLSENSOR reporter assay, agonist mode
# Type: cell-based
# protocolConditions: 5 hours incubation, maximum concentration 100 nM
Reported EC50 values for the following molecules.

Solved cases below.
- molecule: "CC(C)C(=O)O[C@]1(C(=O)CO)CC[C@H]2[C@@H]3CCC4=CC(=O)CC[C@]4(C)[C@H]3[C@@H](O)C[C@@]21C [drawing 17]"
  EC50: "7.07 nM"
- molecule: "C[C@]12CCC(=O)C=C1CC[C@@H]1[C@@H]2[C@@H](O)C[C@@]2(C)[C@H]1CC[C@]2(OC(=O)C1CCCC1)C(=O)CO [drawing 11]"
  EC50: "1.35 nM"
- molecule: "CCC(=O)O[C@]1(C(=O)CO)CC[C@H]2[C@@H]3CCC4=CC(=O)CC[C@]4(C)[C@H]3[C@@H](O)C[C@@]21C [drawing 16]"
  EC50: "6.31 nM"
- molecule: "C[C@]12CCC(=O)C=C1CC[C@@H]1[C@@H]2[C@@H](O)C[C@@]2(C)[C@H]1CC[C@]2(OC(=O)c1ccccc1)C(=O)CO [drawing 12]"
  EC50: "1.41 nM"
- molecule: "C[C@]12CCC(=O)C=C1CC[C@@H]1[C@@H]2[C@@H](O)C[C@@]2(C)[C@H]1CC[C@]2(OC(=O)Cc1ccccc1)C(=O)CO [drawing 20]"
  EC50: "> 100 nM"

**Query** Item CCCCCCC(=O)O[C@]1(C(=O)CO)CC[C@H]2[C@@H]3CCC4=CC(=O)CC[C@]4(C)[C@H]3[C@@H](O)C[C@@]21C [drawing 19] has what recorded EC50?
**Result** > 100 nM
